These data points were gathered from patent US12110311B2.

// reported concentration at 1 h for each item listed
Assay: Tissue distribution following oral administration in rats (prodrug and metabolite levels in liver and blood)
Format: in vivo
Settings: rat, prodrug level in liver, 1 hour after oral administration, 5 mg/kg, read-out: Drug liver
Method: The liver specificity of the disclosed compounds is compared relative to a corresponding active compound in the liver and other organs that could be targets of toxicity. Reference compounds and the cyclic deoxyribonucleotide compounds are administered at 5-50 mg/kg to fasted rats by oral gavage. […]
Use ng/g as the unit, but write only the number.

- molecule: "CC(C)OC(=O)c1ccccc1COP1(=O)OC[C@H]2O[C@@H](n3cc(F)c(=O)[nH]c3=O)C[C@@H]2O1 (some centres unmarked)"
  concentration at 1 h (ng/g): 668

Entry CCCOC(=O)c1ccccc1COP1(=O)OC[C@H]2O[C@@H](n3cc(F)c(=O)[nH]c3=O)C[C@@H]2O1 (some centres unmarked) has what concentration at 1 h?
9.3
